Tested on: 855422-203-R-J1-PDC spheroids with HUVEC/MSC, viability;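 further: agents incubated with spheroids for one week before read-out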
ASSAY PROTOCOL: Anticancer human tumor 855422-203-R-J1-PDC patient-derived bladder carcinoma cell line growth inhibition [PI3K]
PROTOCOL CONDITIONS: second compound 0.1 µM; first compound 0.1 µM; active compounds read low
Each record is given True if its reported viability, T/C is strictly below 30%. Records at or above 30% are given False.

Please indicate whether the reported viability, T/C of CNC(=O)c1ccc(N2C(=S)N(c3ccc(C#N)c(C(F)(F)F)c3)C(=O)C2(C)C)cc1F + COc1c(OCCCN2CCOCC2)ccc2c3n(c(=NC(=O)c4cnc(N)nc4)nc12)CCN3 is strictly below 30%.
False

Please indicate whether the reported viability, T/C of Cn1nccc1Nc1nccc(-c2ccn(C(CO)c3ccc(Cl)c(F)c3)c(=O)c2)n1 (stereo unspecified) + COc1c(OCCCN2CCOCC2)ccc2c3n(c(=NC(=O)c4cnc(N)nc4)nc12)CCN3 is strictly below 30%.
True

Please indicate whether the reported viability, T/C of Cn1ncnc1[C@H]1c2n[nH]c(=O)c3cc(F)cc(c23)N[C@@H]1c1ccc(F)cc1 + CC(Nc1ncnc2nc[nH]c12)c1cc2cccc(Cl)c2c(=O)n1-c1ccccc1 is strictly below 30%.
False

Please indicate whether the reported viability, T/C of CC1(C)CCC(Nc2ncc(C(F)(F)F)c(-c3c[nH]c4c(P(C)(C)=O)c(C#N)ccc34)n2)CN1 (stereo unspecified) + COc1c(OCCCN2CCOCC2)ccc2c3n(c(=NC(=O)c4cnc(N)nc4)nc12)CCN3 is strictly below 30%.
True

Please indicate whether the reported viability, T/C of CC(Cn1ccc(-c2ccc(C#N)c(Cl)c2)n1)NC(=O)c1cc(C(C)O)[nH]n1 (stereo unspecified) + CC(Nc1ncnc2nc[nH]c12)c1cc2cccc(Cl)c2c(=O)n1-c1ccccc1 is strictly below 30%.
False

Please indicate whether the reported viability, T/C of CCCS(=O)(=O)Nc1ccc(F)c(C(=O)c2c[nH]c3ncc(-c4ccc(Cl)cc4)cc23)c1F + CC(Nc1ncnc2nc[nH]c12)c1cc2cccc(Cl)c2c(=O)n1-c1ccccc1 is strictly below 30%.
False

Please indicate whether the reported viability, T/C of C#Cc1c(F)ccc2cc(O)cc(-c3ncc4c(N5CC6CCC(C5)N6)nc(OCC56CCCN5CC(F)C6)nc4c3F)c12 (stereo unspecified) + COc1c(OCCCN2CCOCC2)ccc2c3n(c(=NC(=O)c4cnc(N)nc4)nc12)CCN3 is strictly below 30%.
True

Please indicate whether the reported viability, T/C of CC(C)n1nc(-c2ccc3oc(N)nc3c2)c2c(N)ncnc21 + CC(Nc1ncnc2nc[nH]c12)c1cc2cccc(Cl)c2c(=O)n1-c1ccccc1 is strictly below 30%.
True

Please indicate whether the reported viability, T/C of Cn1ncc(Cl)c1-c1cc(C(=O)NC(CN)Cc2cccc(F)c2)sc1Cl (stereo unspecified) + COc1c(OCCCN2CCOCC2)ccc2c3n(c(=NC(=O)c4cnc(N)nc4)nc12)CCN3 is strictly below 30%.
True

Please indicate whether the reported viability, T/C of CC(Cn1ccc(-c2ccc(C#N)c(Cl)c2)n1)NC(=O)c1cc(C(C)O)[nH]n1 (stereo unspecified) + Cc1nc(NC(=O)N2CCCC2C(N)=O)sc1-c1ccnc(C(C)(C)C(F)(F)F)c1 is strictly below 30%.
False

Please indicate whether the reported viability, T/C of CCN1CCN(Cc2ccc(Nc3ncc(F)c(-c4cc(F)c5nc(C)n(C(C)C)c5c4)n3)nc2)CC1 + CC(Nc1ccc2c(c1)OCCn1cc(N3C(=O)OCC3C(F)F)nc1-2)C(N)=O is strictly below 30%.
False
